All values here come from patent US12275687B2.

TARGET DESC: BLT1 S276^7.45A mutant (Cavia porcellus, UniProt H0VYV8, S276A)
Sequence (H0VYV8 1-348 S276A): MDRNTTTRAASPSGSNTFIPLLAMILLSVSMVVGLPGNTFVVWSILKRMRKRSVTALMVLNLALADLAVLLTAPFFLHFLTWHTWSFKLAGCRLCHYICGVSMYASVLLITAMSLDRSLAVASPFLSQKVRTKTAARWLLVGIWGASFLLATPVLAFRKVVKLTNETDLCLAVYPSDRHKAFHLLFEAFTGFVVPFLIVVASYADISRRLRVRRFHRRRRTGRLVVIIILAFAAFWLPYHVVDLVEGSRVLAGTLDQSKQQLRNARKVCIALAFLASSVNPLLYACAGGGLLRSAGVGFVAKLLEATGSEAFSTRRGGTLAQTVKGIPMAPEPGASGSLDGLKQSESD
PROCEDURE SUMMARY: Competition binding of BIIL260 to 0.5 nM ^3H-LTB4, BLT1 mutant in HEK293 membrane fraction
DETAILS: S276^7.45A
ASSAY METRIC: IC50 (nM)
Return type: number; implicit unit nM.

Data request: What is its IC50 for BLT1 S276^7.45A mutant (Cavia porcellus, UniProt H0VYV8, S276A)? Entry: CC(C)(c1ccc(O)cc1)c1ccc(OCc2cccc(COc3ccc(C(=N)N)cc3)c2)cc1
Data returned: 124

###

TARGET DESC: BLT1-T4L
PROCEDURE SUMMARY: Saturation binding of ^3H-LTB4, BLT1-T4L expressed in P. pastoris (membrane fraction)
DETAILS: saturation binding of ^3H-LTB4, ICL3-10 construct
ASSAY METRIC: Kd (nM)
Return type: number; implicit unit nM.

Data request: Need Kd of CCCCC/C=C\C[C@@H](O)/C=C/C=C/C=C\[C@@H](O)CCCC(=O)O [LTB4, leukotriene B4] , thanks.
Data returned: 1.2
